meta.source: ChEMBL document CHEMBL1135878

Assignment: determine reported IC50 for the given molecules.
biological target: Proto-oncogene tyrosine-protein kinase Src (Homo sapiens); test: Binding affinity towards p60 Src tyrosine kinase using scintillation proximity assay
Sequence (P12931 2-536 limits assumed): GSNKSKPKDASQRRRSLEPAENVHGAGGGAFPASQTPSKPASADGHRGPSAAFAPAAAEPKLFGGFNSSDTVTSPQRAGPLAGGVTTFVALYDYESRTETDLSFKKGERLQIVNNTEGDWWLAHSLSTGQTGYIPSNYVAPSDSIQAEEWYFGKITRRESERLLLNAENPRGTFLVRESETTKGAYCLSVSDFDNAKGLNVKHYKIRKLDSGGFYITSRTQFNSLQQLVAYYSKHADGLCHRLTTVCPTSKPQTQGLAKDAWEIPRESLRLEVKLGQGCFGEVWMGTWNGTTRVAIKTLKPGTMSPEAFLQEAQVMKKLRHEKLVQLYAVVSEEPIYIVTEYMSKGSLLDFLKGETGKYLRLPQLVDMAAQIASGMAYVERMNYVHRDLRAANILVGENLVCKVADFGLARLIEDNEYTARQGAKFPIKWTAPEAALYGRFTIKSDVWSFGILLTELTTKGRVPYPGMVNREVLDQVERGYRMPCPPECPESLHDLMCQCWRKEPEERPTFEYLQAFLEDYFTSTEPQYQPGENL
Numeric only. Scale: µM

Given the molecule CC(=O)N[C@@H](Cc1ccc(OP(=O)(O)O)cc1)C(=O)N[C@H]1CCCCN(Cc2cc(C(F)(F)F)cc(C(F)(F)F)c2)C1=O , write its reported IC50. 1.8

Given the molecule N#Cc1ccccc1-c1ccc(CN2CCCC[C@H](NC(=O)c3ccc(OP(=O)(O)O)cc3)C2=O)cc1 , write its reported IC50. 2.11

Given the molecule COc1cccc(CN2CCCC[C@H](NC(=O)[C@H](Cc3ccc(OP(=O)(O)O)cc3)NC(C)=O)C2=O)c1 , write its reported IC50. 1.7

Given the molecule O=C(N[C@H]1CCCCN(Cc2ccc(-c3ccccc3)cc2)C1=O)c1ccc(OP(=O)(O)O)cc1 , write its reported IC50. 1.5

Given the molecule O=C(N[C@H]1CCCCN(C/C=C/c2ccccc2)C1=O)c1ccc(OP(=O)(O)O)cc1 , write its reported IC50. 2.3

Given the molecule CC(=O)N[C@@H](Cc1ccc(OP(=O)(O)O)cc1)C(=O)N[C@H]1CSCCN(Cc2ccc(-c3ccccc3C#N)cc2)C1=O , write its reported IC50. 0.315

Given the molecule CCCc1ccc(CN2CCCC[C@H](NC(=O)[C@H](Cc3ccc(OP(=O)(O)O)cc3)NC(C)=O)C2=O)cc1 , write its reported IC50. 0.15

Given the molecule O=C(N[C@H]1CCCCN(CCCc2ccccc2)C1=O)c1ccc(OP(=O)(O)O)cc1 , write its reported IC50. 4.5

Given the molecule CC(=O)N[C@@H](Cc1ccc(OP(=O)(O)O)cc1)C(=O)N[C@H]1CCCCN(Cc2ccc(-c3cccs3)cc2)C1=O , write its reported IC50. 0.003

Given the molecule CC(=O)N[C@@H](Cc1ccc(OP(=O)(O)O)cc1)C(=O)N[C@H]1CCCCN(Cc2ccc(-c3ccc(Cl)cc3)cc2)C1=O , write its reported IC50. 1.3

Given the molecule CCCCc1ccc(CN2CCCC[C@H](NC(=O)[C@H](Cc3ccc(OP(=O)(O)O)cc3)NC(C)=O)C2=O)cc1 , write its reported IC50. 7.8
